Here, each record is paired with measured PBM binding z-score data.
System: LXRa homodimer (NR concentration 270 nM)
test summary: PBM binding z-score (relative to random genomic background probes); higher = stronger binding; sequences stand for … in GC…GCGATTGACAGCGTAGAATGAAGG
metric: PBM binding z-score

sequence_data=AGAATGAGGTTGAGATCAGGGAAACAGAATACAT metric="PBM binding z-score" observed_value=-0.104
sequence_data=CCTATTAGTTGACCATAAGGGCAACCTAAGCTCG metric="PBM binding z-score" observed_value=0.487
sequence_data=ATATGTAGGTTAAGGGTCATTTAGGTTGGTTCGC metric="PBM binding z-score" observed_value=3.45
sequence_data=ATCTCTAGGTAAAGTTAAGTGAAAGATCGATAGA metric="PBM binding z-score" observed_value=0.216
sequence_data=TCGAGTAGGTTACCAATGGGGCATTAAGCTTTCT metric="PBM binding z-score" observed_value=-0.459
sequence_data=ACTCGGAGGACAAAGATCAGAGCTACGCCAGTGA metric="PBM binding z-score" observed_value=-0.56

###

System: VDR:RXRa (NR concentration 270 nM, RXRa partner concentration 90 nM)
test summary: PBM binding z-score (relative to random genomic background probes); higher = stronger binding; sequences stand for … in GC…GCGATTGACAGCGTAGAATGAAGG
Note that class boundaries on PBM binding z-score are low group: < 1; middle group: ≥ 1 and < 3; high group: ≥ 3

sequence_data=ACAAGTTGGTCAGCTGAGGTCACACACAATTCGG label="high group"
sequence_data=ATCTCTAGGTAACAAAGTTCAGTGAATGCCGAAC label="high group"
sequence_data=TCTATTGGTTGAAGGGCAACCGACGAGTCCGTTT label="low group"
sequence_data=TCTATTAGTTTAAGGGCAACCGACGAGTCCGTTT label="middle group"
sequence_data=ATTTCTAGGTAAGACTCAGTTCAGTGAAGAACGC label="middle group"
sequence_data=TCATATAGGTAAACAGCTGAAAGTCCGTAAGTTA label="middle group"
sequence_data=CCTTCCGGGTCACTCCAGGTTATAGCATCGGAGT label="high group"
sequence_data=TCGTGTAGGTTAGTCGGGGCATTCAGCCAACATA label="middle group"
sequence_data=GCTGCTAGGTCAACTGTTGGTCAGCTAAAGCTCG label="middle group"
sequence_data=CCTCGGCGGACAACAGGAGGTCAGAGCTGCCAGA label="low group"
sequence_data=AGAATGAGGTTAAGATAAGGGAAACAGAATACAT label="middle group"
sequence_data=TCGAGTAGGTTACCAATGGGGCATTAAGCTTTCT label="low group"

###

Test system: PPARg:RXRa IVT, anti-PPARg (NR concentration 270 nM, RXRa partner concentration 90 nM)
test summary: PBM binding z-score (relative to random genomic background probes); higher = stronger binding; sequences stand for … in GC…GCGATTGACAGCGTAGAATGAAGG
metric: PBM binding z-score

sequence_data=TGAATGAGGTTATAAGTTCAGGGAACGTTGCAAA experimental_system="PPARg:RXRa IVT, anti-PPARg (NR concentration 270 nM, RXRa partner concentration 90 nM)" observed_value=1.78
sequence_data=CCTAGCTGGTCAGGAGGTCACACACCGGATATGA experimental_system="PPARg:RXRa IVT, anti-PPARg (NR concentration 270 nM, RXRa partner concentration 90 nM)" observed_value=2.85
sequence_data=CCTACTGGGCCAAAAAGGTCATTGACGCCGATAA experimental_system="PPARg:RXRa IVT, anti-PPARg (NR concentration 270 nM, RXRa partner concentration 90 nM)" observed_value=3.99
sequence_data=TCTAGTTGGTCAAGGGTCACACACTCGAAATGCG experimental_system="PPARg:RXRa IVT, anti-PPARg (NR concentration 270 nM, RXRa partner concentration 90 nM)" observed_value=5.1
sequence_data=AATACAGGGTCATCCTAGGCCAGAGTACGCACAG experimental_system="PPARg:RXRa IVT, anti-PPARg (NR concentration 270 nM, RXRa partner concentration 90 nM)" observed_value=4.16
sequence_data=CGTGCAAGGTCAGCAGGTCAGTGAAAGCGACGTG experimental_system="PPARg:RXRa IVT, anti-PPARg (NR concentration 270 nM, RXRa partner concentration 90 nM)" observed_value=3.96
sequence_data=AGAATGAGGTTAATATCAGGGAAACAGAATACAT experimental_system="PPARg:RXRa IVT, anti-PPARg (NR concentration 270 nM, RXRa partner concentration 90 nM)" observed_value=2.7
sequence_data=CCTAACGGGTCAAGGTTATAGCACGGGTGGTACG experimental_system="PPARg:RXRa IVT, anti-PPARg (NR concentration 270 nM, RXRa partner concentration 90 nM)" observed_value=2.74
sequence_data=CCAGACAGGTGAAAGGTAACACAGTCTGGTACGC experimental_system="PPARg:RXRa IVT, anti-PPARg (NR concentration 270 nM, RXRa partner concentration 90 nM)" observed_value=3.4
sequence_data=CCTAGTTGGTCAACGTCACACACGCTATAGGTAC experimental_system="PPARg:RXRa IVT, anti-PPARg (NR concentration 270 nM, RXRa partner concentration 90 nM)" observed_value=1.8
sequence_data=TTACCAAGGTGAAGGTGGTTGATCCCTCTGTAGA experimental_system="PPARg:RXRa IVT, anti-PPARg (NR concentration 270 nM, RXRa partner concentration 90 nM)" observed_value=2.52
sequence_data=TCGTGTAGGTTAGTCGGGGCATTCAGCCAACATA experimental_system="PPARg:RXRa IVT, anti-PPARg (NR concentration 270 nM, RXRa partner concentration 90 nM)" observed_value=1.92
